The entries below are paired with their reported pIC50.
target-desc: Recombinant SARS-CoV-2 3CL Protease (Severe acute respiratory syndrome coronavirus 2 (2019-nCoV) (SARS-CoV-2), UniProt P0DTD1)
assay-name: biochemical
Assay type: biochemical
experimental-conditions: 50% SARS-CoV-2 3CL protease inhibitory concentration; read-out: IC50
pIC50: −log10 of the molar value.

compound: N#CCn1c(N2CC[C@](O)(C(F)F)C2)c(-c2ccc(F)c(Cl)c2)c(=O)n(-c2cncc(Cl)c2)c1=O (single isomer, unassigned)
pIC50: 9.20
//
compound: N#CCn1c(N2CC3(C2)CC(F)(F)C3)c(-c2ccc(F)c(Cl)c2)c(=O)n(-c2cc(Cl)c[n+]([O-])c2)c1=O
pIC50: > 8.00
//
compound: N#CCn1c(N2CC(O)(c3ncccn3)C2)c(-c2ccc(F)c(Cl)c2)c(=O)n(-c2cncc(OCF)n2)c1=O
pIC50: > 8.00

----------
target-desc: Recombinant SARS-CoV-2 3CL Protease (Severe acute respiratory syndrome coronavirus 2 (2019-nCoV) (SARS-CoV-2), UniProt P0DTD1)
assay-name: biochemical
Assay type: biochemical
experimental-conditions: 50% SARS-CoV-2 3CL protease inhibitory concentration; read-out: IC50
pIC50: −log10 of the molar value.
measure: pIC50

cpd-smiles: N#CCn1c(N2CC(N3CCOCC3)C2)c(-c2ccc(F)c(Cl)c2)c(=O)n(-c2cncc(Cl)c2)c1=O
reported-measurement: > 8.00

cpd-smiles: N#CCn1c(C2CC(F)(F)C2)c(-c2ccc(F)c(Cl)c2)c(=O)n(-c2cncc(Cl)c2)c1=O
reported-measurement: > 8.00

cpd-smiles: N#CCn1c(N2CCC(C(F)F)CC2)c(-c2ccc(F)c(F)c2)c(=O)n(-c2cncc(Cl)c2)c1=O
reported-measurement: > 8.00

cpd-smiles: Cc1cncc(-n2c(=O)c(Cc3cc(F)c(F)c(F)c3)c(N3CC4(CCOC4)C3)n(CC#N)c2=O)c1
reported-measurement: > 8.00

cpd-smiles: N#CCn1c(N2Cc3cn[nH]c3C2)c(Cc2cc(F)c(F)c(F)c2)c(=O)n(-c2cncc(Cl)c2)c1=O
reported-measurement: > 8.00

cpd-smiles: CC(C)(O)CCc1c(-c2ccc(F)c(Cl)c2)c(=O)n(-c2cncc(Cl)c2)c(=O)n1CC#N
reported-measurement: > 8.00

cpd-smiles: N#CCn1c(N2CC(c3nccs3)C2)c(-c2ccc(F)c(Cl)c2)c(=O)n(-c2cncc(Cl)c2)c1=O
reported-measurement: > 8.00

cpd-smiles: N#CCn1c(N2CCCO2)c(-c2ccc(F)c(Cl)c2)c(=O)n(-c2cncc(Cl)c2)c1=O
reported-measurement: 7.00 to 8.00

cpd-smiles: Cc1cncc(-n2c(=O)c(-c3ccc(F)c(Cl)c3)c(N3CCC4(CCNC4=O)CC3)n(CC#N)c2=O)c1
reported-measurement: > 8.00

cpd-smiles: Cc1cncc(-n2c(=O)c(Cc3cc(F)c(F)c(F)c3)c(N3CCCC3)n(CC#N)c2=O)c1
reported-measurement: 7.00 to 8.00

cpd-smiles: N#CCn1c(N2CC3(CCOC3)C2)c(Cc2cc(F)c(F)c(F)c2)c(=O)n(-c2cnn3ccccc23)c1=O
reported-measurement: < 7.00

cpd-smiles: N#CCn1c(-c2ccc(C(F)F)nc2)c(-c2ccc(F)c(Cl)c2)c(=O)n(-c2cncc(Cl)c2)c1=O
reported-measurement: > 8.00

cpd-smiles: Cc1cc(-n2c(=O)c(-c3ccc(F)c(Cl)c3)c(-c3nc4ccccc4s3)n(CC#N)c2=O)cc(=O)[nH]1
reported-measurement: > 8.00

cpd-smiles: N#CCn1c(N2CC(O)(c3ncc(F)cn3)C2)c(-c2ccc(F)c(Cl)c2)c(=O)n(-c2cncc(Cl)c2)c1=O
reported-measurement: 8.92

----------
target-desc: Recombinant SARS-CoV-2 3CL Protease (Severe acute respiratory syndrome coronavirus 2 (2019-nCoV) (SARS-CoV-2), UniProt P0DTD1)
assay-name: biochemical
Type: biochemical
experimental-conditions: 50% SARS-CoV-2 3CL protease inhibitory concentration; read-out: IC50
In this section, each of the compounds is paired with its reported IC50.

compound: N#CCn1c(-c2ccc(C3CC3)cc2)c(N2CCCCC2)c(=O)n(-c2cncc(Cl)c2)c1=O
IC50: 0.01 to 0.1 µM
//
compound: N#CCn1c(N2CC(O)(C(F)(F)F)C2)c(-c2cc(F)c(F)c(C#N)c2)c(=O)n(-c2cncc(Cl)c2)c1=O
IC50: < 0.01 µM
//
compound: N#CCn1c(N2C[C@@H]3C[C@H]2CO3)c(-c2ccc(F)c(C(F)F)c2)c(=O)n(-c2cncc(Cl)c2)c1=O
IC50: < 0.01 µM
//
compound: C[C@H](C#N)n1c(N2CC[C@@](O)(C(F)F)C2)c(-c2ccc(F)c(Cl)c2)c(=O)n(-c2cncc(Cl)c2)c1=O (single isomer, unassigned)
IC50: < 0.01 µM
//
compound: Cc1cc(-n2c(=O)c(-c3ccc(F)c(Cl)c3)c(N3CC4(CCOCC4)C3)n(CC#N)c2=O)cc(=O)[nH]1
IC50: < 0.01 µM
//
compound: Cc1cnnc(-n2c(=O)c(Cc3cc(F)c(F)c(F)c3)c(N3CC4(CCOC4)C3)n(CC#N)c2=O)c1
IC50: > 0.1 µM
//
compound: CC(C)(O)[C@@H]1CCN(c2c(-c3ccc(F)c(Cl)c3)c(=O)n(-c3cncc(C#N)c3)c(=O)n2CC#N)C1
IC50: < 0.01 µM
//
compound: Cc1cncc(-n2c(=O)c(-c3ccc(F)c(Cl)c3)c(-c3ccc(C(F)(F)F)c(Cl)c3)n(CC#N)c2=O)c1
IC50: < 0.01 µM
//
compound: N#CCn1c(N2CCC(O)(C(F)(F)F)CC2)c(-c2ccc(F)c(Cl)c2)c(=O)n(-c2cnc3cc(Cl)ccn23)c1=O
IC50: 0.01 to 0.1 µM
//
compound: N#CCn1c(N2CC3(C2)CC(F)(F)C3)c(-c2ccc(F)c(Cl)c2)c(=O)n(-c2cncc(C#N)n2)c1=O
IC50: < 0.01 µM
//
compound: Cn1ccc(-c2c(-c3ccc(F)c(Cl)c3)c(=O)n(-c3cncc(Cl)c3)c(=O)n2CC#N)n1
IC50: < 0.01 µM
//
compound: Cc1cncc(-n2c(=O)c(-c3ccc(F)c(Cl)c3)c(Oc3cccc4ccccc34)n(CC#N)c2=O)c1
IC50: < 0.01 µM
//
compound: N#CCn1c(N2CC(OC(F)F)C2)c(-c2cc(F)c(F)c(C#N)c2)c(=O)n(-c2cncc(Cl)c2)c1=O
IC50: < 0.01 µM

----------
target-desc: Recombinant SARS-CoV-2 3CL Protease (Severe acute respiratory syndrome coronavirus 2 (2019-nCoV) (SARS-CoV-2), UniProt P0DTD1)
assay-name: biochemical
Format: biochemical
experimental-conditions: 50% SARS-CoV-2 3CL protease inhibitory concentration; read-out: IC50
measure: IC50

molecule: N#CCn1c(N2CC(OC(F)(F)F)C2)c(-c2ccc(F)c(Cl)c2)c(=O)n(-c2cncc(Cl)c2)c1=O
measure: IC50
reported-measurement: 0.35 nM
//
molecule: CC(C)(O)C1CN(c2c(-c3ccc(F)c(Cl)c3)c(=O)n(-c3cnc4cc(Cl)ccn34)c(=O)n2CC#N)C1
measure: IC50
reported-measurement: 10 to 100 nM
//
molecule: Cc1cncc(-n2c(=O)c(-c3ccc(F)c(Cl)c3)c(-c3ccc(S(N)(=O)=O)cc3)n(CC#N)c2=O)c1
measure: IC50
reported-measurement: < 10 nM
//
molecule: N#CCn1c(Oc2cncc(Cl)c2)c(-c2ccc(F)c(Cl)c2)c(=O)n(-c2cncc(Cl)c2)c1=O
measure: IC50
reported-measurement: < 10 nM
//
molecule: CN1C[C@@H]2CN(c3c(Cc4cc(F)c(F)c(F)c4)c(=O)n(Cc4ncn(C)n4)c(=O)n3CC#N)C[C@@H]2C1
measure: IC50
reported-measurement: > 100 nM
//
molecule: Cc1cncc(-n2c(=O)c(Cc3cc(F)c(F)c(F)c3)c(N3CC4(CCOC4)C3)n(C(C)C#N)c2=O)c1 (racemic)
measure: IC50
reported-measurement: 10 to 100 nM
//
molecule: Cc1cncc(-n2c(=O)c(Cc3cc(F)c(F)c(F)c3)c(N3Cc4cn[nH]c4C3)n(CC#N)c2=O)c1
measure: IC50
reported-measurement: < 10 nM

----------
target-desc: Recombinant SARS-CoV-2 3CL Protease (Severe acute respiratory syndrome coronavirus 2 (2019-nCoV) (SARS-CoV-2), UniProt P0DTD1)
assay-name: biochemical
Type: biochemical
experimental-conditions: 50% SARS-CoV-2 3CL protease inhibitory concentration; read-out: IC50
Below is a list of entries, each paired with its recorded IC50 value.
measure: IC50

compound: Cn1cnc(Cn2c(=O)c(Cc3cc(F)c(F)c(F)c3)c(N3CCc4ccccc4C3)n(CC#N)c2=O)n1 [Compound I-006]
reported-measurement: > 100 nM
--
compound: Cc1ccc(-c2c(Cc3cc(F)c(F)c(F)c3)c(=O)n(-c3cncc(Cl)c3)c(=O)n2CC#N)cc1C [Compound I-058]
reported-measurement: < 10 nM
--
compound: N#CCn1c(N2CC(OC(F)F)C2)c(-c2ccc(F)c(Cl)c2)c(=O)n(-c2cncc(C(F)F)n2)c1=O [Compound I-358]
reported-measurement: < 10 nM
--
compound: N#CCn1c(N2CCC(F)(F)CC2)c(-c2cccc(C#N)c2)c(=O)n(-c2cncc(Cl)c2)c1=O [Compound I-169]
reported-measurement: 10 to 100 nM
--
compound: Cc1[nH]ncc1-n1c(=O)c(Cc2cc(F)c(F)c(F)c2)c(N2Cc3ccccc3C2)n(CC#N)c1=O [Compound I-164]
reported-measurement: > 100 nM
--
compound: Cc1cncc(-n2c(=O)c(C(=O)c3cc(F)c(F)c(F)c3)c(-c3cc4ccccc4s3)n(CC#N)c2=O)c1 [Compound I-011]
reported-measurement: 10 to 100 nM
--
compound: COCc1c(-c2ccc(F)c(Cl)c2)c(=O)n(-c2cncc(Cl)c2)c(=O)n1CC#N [Compound I-435]
reported-measurement: 10 to 100 nM
